The reported numbers originate from patent US12435061B2.

measured.on: human hERG channels (Homo sapiens (Human), UniProt Q12809)
Sequence (Q12809 whole entry): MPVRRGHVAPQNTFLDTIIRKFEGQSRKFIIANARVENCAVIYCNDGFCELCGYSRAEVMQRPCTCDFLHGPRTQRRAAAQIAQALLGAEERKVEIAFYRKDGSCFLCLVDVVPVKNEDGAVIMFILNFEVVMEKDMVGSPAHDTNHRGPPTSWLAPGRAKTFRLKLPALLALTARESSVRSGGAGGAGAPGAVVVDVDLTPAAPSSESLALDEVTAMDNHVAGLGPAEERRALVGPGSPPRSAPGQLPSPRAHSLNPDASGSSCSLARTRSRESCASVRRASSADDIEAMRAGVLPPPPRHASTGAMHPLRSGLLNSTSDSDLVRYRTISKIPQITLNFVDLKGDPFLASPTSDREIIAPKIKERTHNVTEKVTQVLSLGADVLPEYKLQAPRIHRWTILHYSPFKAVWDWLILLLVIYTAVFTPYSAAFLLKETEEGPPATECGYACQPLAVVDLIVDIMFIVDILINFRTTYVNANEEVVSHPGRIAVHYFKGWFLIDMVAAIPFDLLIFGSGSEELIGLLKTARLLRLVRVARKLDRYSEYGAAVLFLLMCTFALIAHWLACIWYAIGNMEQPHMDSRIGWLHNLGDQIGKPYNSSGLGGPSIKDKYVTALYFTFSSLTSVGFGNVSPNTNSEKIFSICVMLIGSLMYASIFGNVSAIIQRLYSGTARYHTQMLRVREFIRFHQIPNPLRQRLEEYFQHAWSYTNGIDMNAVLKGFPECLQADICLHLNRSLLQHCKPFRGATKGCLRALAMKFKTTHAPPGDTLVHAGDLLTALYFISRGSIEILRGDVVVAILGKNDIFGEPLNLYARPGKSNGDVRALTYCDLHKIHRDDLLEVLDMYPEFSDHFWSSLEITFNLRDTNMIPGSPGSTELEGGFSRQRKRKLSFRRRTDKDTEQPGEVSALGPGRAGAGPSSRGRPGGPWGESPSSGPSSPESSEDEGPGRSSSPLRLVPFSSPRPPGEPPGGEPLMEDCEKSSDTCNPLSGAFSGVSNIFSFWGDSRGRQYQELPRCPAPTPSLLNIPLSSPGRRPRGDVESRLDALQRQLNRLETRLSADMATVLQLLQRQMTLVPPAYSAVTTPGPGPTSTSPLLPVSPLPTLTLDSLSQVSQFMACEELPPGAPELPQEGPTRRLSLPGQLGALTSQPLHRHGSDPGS
procedure.details: hERG assay (patch clamp, CHO cells)
Format: cell-based
measurement.setup: (M); read-out: hERG
observation.type: IC50 (M)
Answers are plain numbers, in M.

CC(C)c1ccccc1Oc1ccc(C2CCN(C(=O)c3cccc(Cl)n3)C2)c(CO)c1 (stereo not shown) [Compound 2-20] :: 3.91e-06
CC(C)c1ccccc1-c1ccc(C2CCN(C(=O)c3ccc(F)cn3)C2)c(CO)c1 (stereo not shown) [Compound 2-29] :: 7.38e-06

Problem: Looking for the measured IC50 of O=C(c1ccc(F)cn1)N1CCC(c2ccc(-c3ccccc3C3CC3)cc2CO)C1 (stereo not shown) [Compound 2-72] , can you help?
Solution: 9.24e-06
